- Test system: Vibrio cholerae
- Test: Antibacterial activity against Vibrio cholerae MM920 assessed as growth inhibition after 4 hrs by spectrophotometry
- Format: organism-based
- Test settings: in vivo

{"columns": ["Compound", "growth inhibition (GI)"],
 "data": [
  ["CCCCCCCCCC(=O)C(S)CC (centres undefined)", "Not Active"],
  ["CCCCCCCCCC(=O)[C@H](O)CC", "Not Active"],
  ["CCCCCCCCCC(=O)C(O)c1ccccc1O (racemic)", "Not Active"],
  ["CCCCCCCCCC(=O)C(O)c1cccc(Cl)c1 (racemic)", "Not Active"],
  ["CCCCCCCCCC(=O)C(O)c1ccccc1C (racemic)", "Not Active"],
  ["CCCCCCCCCC(=O)C(O)c1ccc(O)cc1 (racemic)", "Not Active"],
  ["CCCCCCCCCC(=O)C(O)c1cccc(F)c1 (racemic)", "Not Active"],
  ["CCCCCCCCCC(=O)C(O)c1ccc(Cl)cc1 (racemic)", "Not Active"],
  ["CCCCCCCCCC(=O)C(N)CC.Cl (centres undefined)", "Not Active"]
]}

###

- Target under test: CAI-1 autoinducer sensor kinase/phosphatase CqsS (Vibrio cholerae serotype O1 (strain ATCC 39315 / El Tor Inaba N16961))
- Sequence (whole entry): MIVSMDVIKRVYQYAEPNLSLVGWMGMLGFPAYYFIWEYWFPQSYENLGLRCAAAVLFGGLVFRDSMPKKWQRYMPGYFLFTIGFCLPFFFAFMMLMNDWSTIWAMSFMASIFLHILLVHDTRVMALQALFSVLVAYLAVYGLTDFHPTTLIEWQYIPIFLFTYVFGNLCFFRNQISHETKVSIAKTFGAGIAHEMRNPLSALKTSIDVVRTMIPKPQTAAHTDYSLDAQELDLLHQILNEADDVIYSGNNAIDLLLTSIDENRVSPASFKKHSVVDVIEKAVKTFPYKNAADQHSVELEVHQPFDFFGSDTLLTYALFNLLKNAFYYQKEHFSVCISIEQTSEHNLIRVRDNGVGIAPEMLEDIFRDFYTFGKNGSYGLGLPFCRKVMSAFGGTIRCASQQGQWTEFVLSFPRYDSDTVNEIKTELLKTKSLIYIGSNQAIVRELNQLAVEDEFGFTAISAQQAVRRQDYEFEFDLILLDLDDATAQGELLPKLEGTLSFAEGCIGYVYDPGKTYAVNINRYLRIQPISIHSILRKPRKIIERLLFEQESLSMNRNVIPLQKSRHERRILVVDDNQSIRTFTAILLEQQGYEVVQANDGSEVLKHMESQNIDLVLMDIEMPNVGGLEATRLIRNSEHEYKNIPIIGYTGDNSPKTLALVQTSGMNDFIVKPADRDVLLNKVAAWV
- Test: Ratio of compound IC50 to Ph-CAI-1 IC50 for CqsS receptor in Vibrio cholerae MM920 assessed as inhibition of quorum sensing regulated CAI-1 induced bioluminescence after 4 hrs by scintillation counting
Here the recorded Ratio IC50 is given for each entry.
Endpoint label: Ratio IC50

{"columns": ["Molecule", "Endpoint result"],
 "data": [
  ["CCCCCCCCCC(=O)C(O)c1ccccc1C (racemic)", "> 9"],
  ["CCCCCCCCCC(=O)C(O)c1ccc(Cl)cc1 (racemic)", "> 9"],
  ["CCCCCCCCCC(=O)C(N)c1ccccc1.Cl (racemic)", "> 9"],
  ["CCCCCCCCCC(=O)C(O)c1cccc(F)c1 (racemic)", 3.5],
  ["CCCCCCCCCC(=O)C(O)c1ccc(O)cc1 (racemic)", 1.5],
  ["CCCCCCCCCC(=O)C(O)c1ccc(O)c(O)c1 (racemic)", 3.4],
  ["CCCCCCCCCC(=O)C(O)c1ccc(C)c(C)c1 (racemic)", "> 9"],
  ["CCCCCCCCCC(=O)C(O)c1ccccc1 (racemic)", 1],
  ["CCCCCCCCCC(=O)C(O)c1ccccc1OC (racemic)", "> 9"],
  ["CCCCCCCCCC(=O)C(O)Cc1ccccc1 (racemic)", 1.9],
  ["CCCCCCCCCC(=O)C(O)c1cccc(C)c1 (racemic)", 0.91],
  ["CCCCCCCCCC(=O)C(O)c1ccc(Br)cc1 (racemic)", 2.6],
  ["CCCCCCCCCC(=O)C(O)c1cccc(Br)c1 (racemic)", "> 9"],
  ["CCCCCCCCCC(=O)C(O)c1ccccc1Br (racemic)", "> 9"],
  ["CCCCCCCCCC(=O)C(O)c1ccc(OC)cc1 (racemic)", "> 9"],
  ["CCCCCCCCCC(=O)C(O)c1ccccc1F (racemic)", 1.5],
  ["CCCCCCCCCC(=O)C(O)c1ccc(F)cc1 (racemic)", 2.7],
  ["CCCCCCCCCC(=O)C(O)c1cccc(OC)c1 (racemic)", "> 9"],
  ["CCCCCCCCCC(=O)C(O)c1ccc(C)cc1 (racemic)", 2.2],
  ["CCCCCCCCCC(=O)C(O)c1ccccc1Cl (racemic)", "> 9"],
  ["CCCCCCCCCC(=O)C(O)c1ccccc1O (racemic)", 3.4],
  ["CCCCCCCCCC(=O)C(O)c1cccc(Cl)c1 (racemic)", "> 9"],
  ["CCCCCCCCCC(=O)C(O)c1cccc(O)c1 (racemic)", 0.71],
  ["CCCCCCCCCC(=O)C(O)c1cc(F)ccc1F (racemic)", 1.3]
]}

Origin of measurements: ChEMBL document CHEMBL1921757
